# Tested on: NOMO1
# ASSAY_PROCEDURE: cell viability relative to DMSO control; higher = less cytotoxic
# STUDY_CONDITIONS: RPMI 5 mM glucose + 10% FBS; 48 h; 0.19 µM

{"STRUCTURE_NOTATION": "COc1ccc(C(C)=O)c(O)c1", "UNIT_TEXT": "%", "cell viability": 127}
{"STRUCTURE_NOTATION": "CCC[C@H]1C[C@H](C(=O)N[C@@H]([C@@H]2O[C@@H](SC)[C@@H](O)[C@@H](O)[C@H]2O)[C@H](C)Cl)N(C)C1", "UNIT_TEXT": "%", "cell viability": 134}
{"STRUCTURE_NOTATION": "Cn1cnc2c1c(=O)[nH]c(=O)n2C", "UNIT_TEXT": "%", "cell viability": 96.5}

###

# Test system: SEM cells
# ASSAY_PROCEDURE: cell viability relative to DMSO control; higher = less cytotoxic
# STUDY_CONDITIONS: RPMI 5 mM glucose + 10% dialyzed FBS; 48 h; 1.71 µM
MEASURED_QUANTITY: cell viability

{"COMPOUND": "Cn1cnc2c1c(=O)[nH]c(=O)n2C", "MEASURED_QUANTITY": "cell viability", "TEST_RESULT": "105%"}
{"COMPOUND": "CCC[C@H]1C[C@H](C(=O)N[C@@H]([C@@H]2O[C@@H](SC)[C@@H](O)[C@@H](O)[C@H]2O)[C@H](C)Cl)N(C)C1", "MEASURED_QUANTITY": "cell viability", "TEST_RESULT": "94.3%"}
{"COMPOUND": "Cc1cnc(-c2cc(N3CCN(C(=O)CC[S+](C)(=O)[O-])CC3)ncc2Cl)c(C)c1", "MEASURED_QUANTITY": "cell viability", "TEST_RESULT": "141%"}
{"COMPOUND": "N[C@H](CSC(c1ccccc1)(c1ccccc1)c1ccccc1)C(=O)O", "MEASURED_QUANTITY": "cell viability", "TEST_RESULT": "82.1%"}
{"COMPOUND": "C[S+](=O)([O-])N1CCc2c(-c3cnc(N)nc3)nc(N3CCOCC3)nc21", "MEASURED_QUANTITY": "cell viability", "TEST_RESULT": "65.9%"}
{"COMPOUND": "Cc1ccc([S+](=O)([O-])N[C@@H](Cc2ccccc2)C(=O)CCl)cc1", "MEASURED_QUANTITY": "cell viability", "TEST_RESULT": "107%"}
{"COMPOUND": "Nc1nc(N)c2nc(CNc3ccc(C(=O)NC(CCC(=O)O)C(=O)O)cc3)cnc2n1 (stereo not drawn)", "MEASURED_QUANTITY": "cell viability", "TEST_RESULT": "23.1%"}
{"COMPOUND": "Cc1cn([C@@H]2O[C@H](CO)[C@@H](O)[C@@H]2F)c(=O)[nH]c1=O", "MEASURED_QUANTITY": "cell viability", "TEST_RESULT": "105%"}
{"COMPOUND": "C/C=C(/C)C(=O)O[C@H]1C(C)=C[C@]23C(=O)[C@@H](C=C(CO)[C@@H](O)[C@]12O)[C@H]1[C@@H](C[C@H]3C)C1(C)C", "MEASURED_QUANTITY": "cell viability", "TEST_RESULT": "100%"}
{"COMPOUND": "C[C@@H]1CC[C@H]2[C@@H](C)C(=O)O[C@@H]3O[C@@]4(C)CC[C@@H]1[C@]32OO4", "MEASURED_QUANTITY": "cell viability", "TEST_RESULT": "77.3%"}
{"COMPOUND": "O=c1[nH]c2ccccc2n1C1CCN(Cc2ccc(-c3nc4cc5nc[nH]c5cc4nc3-c3ccccc3)cc2)CC1", "MEASURED_QUANTITY": "cell viability", "TEST_RESULT": "50.5%"}
{"COMPOUND": "O=C(Nc1ccc(F)c(C(F)(F)F)c1)Nc1nnc(-c2ccncc2)s1", "MEASURED_QUANTITY": "cell viability", "TEST_RESULT": "104%"}
{"COMPOUND": "CC(C)C(=O)Oc1ccc(CO)cc1[C@H](CCN(C(C)C)C(C)C)c1ccccc1", "MEASURED_QUANTITY": "cell viability", "TEST_RESULT": "85.7%"}
{"COMPOUND": "O=C(Nc1ccccc1-c1cn2c(CN3CCNCC3)csc2n1)c1cnc2ccccc2n1", "MEASURED_QUANTITY": "cell viability", "TEST_RESULT": "52.6%"}
{"COMPOUND": "NC(=O)c1ccc(I)c([N+](=O)[O-])c1", "MEASURED_QUANTITY": "cell viability", "TEST_RESULT": "131%"}
{"COMPOUND": "CCN1\\C=C(\\C(O)=O)C(=O)C2=CC=C(C)N=C12", "MEASURED_QUANTITY": "cell viability", "TEST_RESULT": "96.6%"}
{"COMPOUND": "O=C(O[C@H]1C[C@H]2CC[C@@H](C1)[N+]21CCCC1)C(O)(c1ccccc1)c1ccccc1.[Cl-]", "MEASURED_QUANTITY": "cell viability", "TEST_RESULT": "117%"}
{"COMPOUND": "OC1CCC(Nc2ncc3nc(Nc4c(F)cc(F)cc4F)n([C@@H]4CCOC4)c3n2)CC1 (stereo partly drawn)", "MEASURED_QUANTITY": "cell viability", "TEST_RESULT": "116%"}

These data points were gathered from the supplement of paper PMC11451515.
